Target sequence: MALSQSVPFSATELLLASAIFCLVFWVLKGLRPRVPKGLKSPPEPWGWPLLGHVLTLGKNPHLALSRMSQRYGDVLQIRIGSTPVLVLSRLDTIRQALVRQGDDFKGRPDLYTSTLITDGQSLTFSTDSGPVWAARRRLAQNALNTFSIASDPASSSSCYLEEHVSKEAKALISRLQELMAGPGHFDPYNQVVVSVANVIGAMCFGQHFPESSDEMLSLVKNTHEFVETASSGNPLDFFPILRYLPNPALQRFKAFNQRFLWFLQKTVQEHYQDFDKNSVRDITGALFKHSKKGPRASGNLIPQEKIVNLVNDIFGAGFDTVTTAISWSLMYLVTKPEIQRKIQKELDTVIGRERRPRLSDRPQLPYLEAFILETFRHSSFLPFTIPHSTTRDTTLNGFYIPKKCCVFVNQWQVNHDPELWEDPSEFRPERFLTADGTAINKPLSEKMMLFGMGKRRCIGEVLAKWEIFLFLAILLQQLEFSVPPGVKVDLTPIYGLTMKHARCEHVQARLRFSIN
Measure name: IC50

Form: compound = O=C(Nc1ccncc1)Nc1ccc(-c2nc(N3CCOCC3)nc(N3C4CCC3COC4)n2)cc1 [PKI-179] ; IC50 = > 30 µM
